# procedure-details: in vivo
# Parameters: species or system mice
# protocol-conditions: male, NODSCID 1L2RγKO, mouse, iv, total radioactivity, Spleen uptake
Could you label it fulfilled if measured tissue uptake at 24 h is 0.6 %ID/g or higher, and not fulfilled otherwise?

hey, is tissue uptake at 24 h for this one >= 0.6 %ID/g? COc1ccc(CCCC(=O)NCC(=O)N[C@@H](CCCCNC(=O)CN2CCN(CC(=O)O)CCN(CC(=O)O)CCN(CC(=O)O)CC2)C(=O)NC[C@H]2CC[C@H](C(=O)N[C@@H](Cc3c4ccccc4cc4ccccc34)C(=O)NCCCC[C@H](NC(=O)N[C@@H](COCC(=O)O)C(=O)O)C(=O)O)CC2)cc1 [177Lu-HTK04028, metal not drawn]
not fulfilled

hey, is tissue uptake at 24 h for this one >= 0.6 %ID/g? O=C(O)CCC[C@H](NC(=O)N[C@@H](CCCCNC(=O)[C@H](Cc1c2ccccc2cc2ccccc12)NC(=O)[C@H]1CC[C@H](CNC(=O)CN2CCN(CC(=O)O)CCN(CC(=O)O)CCN(CC(=O)O)CC2)CC1)C(=O)O)C(=O)O [177Lu-HTK03149, metal not drawn]
not fulfilled

hey, is tissue uptake at 24 h for this one >= 0.6 %ID/g? O=C(O)CCC[C@H](NC(=O)N[C@@H](CCCCNC(=O)[C@H](Cc1c2ccccc2cc2ccccc12)NC(=O)[C@H]1CC[C@H](CNC(=O)[C@H](CCCCNC(=O)CN2CCN(CC(=O)O)CCN(CC(=O)O)CCN(CC(=O)O)CC2)NC(=O)CNC(=O)CCCc2ccc(Cl)cc2)CC1)C(=O)O)C(=O)O [177Lu-HTK03153, metal not drawn]
fulfilled

hey, is tissue uptake at 24 h for this one >= 0.6 %ID/g? COc1ccc(CCCC(=O)NCC(=O)N[C@@H](CCCCNC(=O)CN2CCN(CC(=O)O)CCN(CC(=O)O)CCN(CC(=O)O)CC2)C(=O)NC[C@H]2CC[C@H](C(=O)N[C@@H](Cc3c4ccccc4cc4ccccc34)C(=O)NCCCC[C@H](NC(=O)N[C@@H](CCCC(=O)O)C(=O)O)C(=O)O)CC2)cc1 [177Lu-HTK03170, metal not drawn]
not fulfilled
